So I've got a bunch of compounds here, and I need their pKi values.
target: Bromodomain-containing protein 4 (Homo sapiens); test: Inhibition of human N-terminal His6 tagged BRD4 BD2 (352 to 457) residues expressed in Escherichia coli BL21(DE3) cells after 1 hr by TR-FRET assay
Formally, pKi is defined as -log10 of the concentration c, with c in mol/L.

Send back Bromodomain-containing protein 4 (Homo sapiens) pKi of CCN(C)C(=O)c1cc2c(-c3cc(S(C)(=O)=O)ccc3Oc3ccc(F)cc3F)cn(C)c(=O)c2[nH]1 only. 7.40

Send back Bromodomain-containing protein 4 (Homo sapiens) pKi of Cn1cc(-c2cc(S(C)(=O)=O)ccc2Oc2ccc(F)cc2F)c2cc(C(N)=O)[nH]c2c1=O only. 8.92

Send back Bromodomain-containing protein 4 (Homo sapiens) pKi of CCNC(=O)c1cc2c(-c3cc(NC(C)=O)ccc3Oc3c(C)cc(F)cc3C)cn(C)c(=O)c2[nH]1 only. 8.96

Send back Bromodomain-containing protein 4 (Homo sapiens) pKi of Cc1cc(F)cc(C)c1Oc1ccc(C(C)(C)O)cc1-c1cn(C)c(=O)c2[nH]c(C(=O)NC(C)(C)C)cc12 only. 8.89

Send back Bromodomain-containing protein 4 (Homo sapiens) pKi of CCNC(=O)c1cc2c(-c3cc(S(=O)(=O)CC)ccc3Oc3cc(C)cc(C)c3)cn(C)c(=O)c2[nH]1 only. 9.15

Send back Bromodomain-containing protein 4 (Homo sapiens) pKi of CCNC(=O)c1cc2c(-c3cc(S(=O)(=O)CC)ccc3Oc3c(C)cc(Cl)cc3C)cn(C)c(=O)c2[nH]1 only. 9.10

Send back Bromodomain-containing protein 4 (Homo sapiens) pKi of CCNC(=O)c1cc2c(-c3cc(NS(=O)(=O)CC)ccc3Oc3c(C)cc(F)cc3C)cn(C)c(=O)c2[nH]1 only. 8.96

Send back Bromodomain-containing protein 4 (Homo sapiens) pKi of CCNC(=O)c1cc2c(-c3cc(S(=O)(=O)CC)ccc3Oc3c(C)cccc3C#N)cn(C)c(=O)c2[nH]1 only. 8.49

###

assay: Unbound hepatic clearance in human liver microsomes; format: ADME, Microsome
So I've got a bunch of molecules here, and I need their log10 CL free values.
Friendly reminder: values = log10 of CL free, unit mL/min/kg.

Write down log10 CL free measured for item CCNC(=O)c1cc2c(-c3cc(CO)ccc3Oc3c(C)cccc3C)cn(C)c(=O)c2[nH]1 2.62

Write down log10 CL free measured for item Cc1cc(F)cc(C)c1Oc1ccc(C(C)(C)O)cc1-c1cn(C)c(=O)c2[nH]c(C(=O)NC3CC3)cc12 2.90

Write down log10 CL free measured for item CCNC(=O)c1cc2c(-c3cc(S(=O)(=O)CC)ccc3Oc3ccc(F)cc3F)cn(C)c(=O)c2[nH]1 1.70

Write down log10 CL free measured for item Cc1cc(F)cc(C)c1Oc1ccc(C(C)(C)O)cc1-c1cn(C)c(=O)c2[nH]c(C(=O)NC34CC(C3)C4)cc12 3.30

Write down log10 CL free measured for item CCNC(=O)c1cc2c(-c3cc(NC(=O)OC)ccc3Oc3c(C)cc(F)cc3C)cn(C)c(=O)c2[nH]1 2.74

Write down log10 CL free measured for item CCNC(=O)c1ccc(Oc2c(C)cccc2C)c(-c2cn(C)c(=O)c3[nH]c(C(=O)NCC)cc23)c1 2.34

Write down log10 CL free measured for item CCNC(=O)c1cc2c(-c3cc(C(C)(C)O)ccc3Oc3c(C)cc(F)cc3C)cn(C)c(=O)c2[nH]1 [ABBV-744] 2.16

Write down log10 CL free measured for item CCNC(=O)c1cc2c(-c3cc(S(=O)(=O)CC)ccc3Oc3cc(C)cc(C)c3)cn(C)c(=O)c2[nH]1 2.73

Write down log10 CL free measured for item CCNC(=O)c1cc2c(-c3cc(NC(C)=O)ccc3Oc3c(C)cc(F)cc3C)cn(C)c(=O)c2[nH]1 2.26

Write down log10 CL free measured for item CCNC(=O)c1cc2c(-c3cc(C4(O)CCC4)ccc3Oc3c(C)cc(F)cc3C)cn(C)c(=O)c2[nH]1 3.77

Write down log10 CL free measured for item CCNC(=O)c1cc2c(-c3cc(NS(=O)(=O)CC)ccc3Oc3c(C)cccc3C)cn(C)c(=O)c2[nH]1 2.26

Write down log10 CL free measured for item CCNC(=O)c1cc2c(-c3cc(S(=O)(=O)CC)ccc3-n3ccc4ccccc43)cn(C)c(=O)c2[nH]1 2.65

Write down log10 CL free measured for item CCNC(=O)c1cc2c(-c3ccccc3Cc3c(C)cccc3C)cn(C)c(=O)c2[nH]1 3.73

Write down log10 CL free measured for item Cn1cc(-c2cc(S(C)(=O)=O)ccc2Oc2ccc(F)cc2F)c2cc(C(N)=O)[nH]c2c1=O 1.88

Write down log10 CL free measured for item CCNC(=O)c1cc2c(-c3cc(S(=O)(=O)C4CC4)ccc3Oc3c(C)cccc3C)cn(C)c(=O)c2[nH]1 2.48

Write down log10 CL free measured for item CCNC(=O)c1cc2c(-c3cc(C4(O)COC4)ccc3Oc3c(C)cc(F)cc3C)cn(C)c(=O)c2[nH]1 2.54

Write down log10 CL free measured for item CCNC(=O)c1cc2c(-c3cc(S(=O)(=O)CC)ccc3Oc3c(C)cc(Cl)cc3C)cn(C)c(=O)c2[nH]1 2.89
